Eschericia coli MIC data

# count of solved cases: 9
I'm curious: which MIC was measured for Clc1ccc(OCOCC#CI)cc1 [IF-1000, reference compound] tested on Eschericia coli?
100 to 200 µg/mL

I'm curious: which MIC was measured for "CCOc1ccc(OCOCC#CI)cc1" tested on Eschericia coli?
> 1000 µg/mL

I'm curious: which MIC was measured for "CCOc1ccccc1OCOCC#CI" tested on Eschericia coli?
> 1000 µg/mL

I'm curious: which MIC was measured for COc1ccccc1OC(C)OCC#CI (stereo not shown) tested on Eschericia coli?
> 1000 µg/mL

I'm curious: which MIC was measured for CCOc1ccccc1OC(C)OCC#CI (stereo not shown) tested on Eschericia coli?
> 1000 µg/mL

I'm curious: which MIC was measured for "N#Cc1ccc(OCOCC#CI)cc1" tested on Eschericia coli?
> 1000 µg/mL

I'm curious: which MIC was measured for "COc1ccccc1OCOCC#CI" tested on Eschericia coli?
> 1000 µg/mL

I'm curious: which MIC was measured for CCOc1ccc(OC(C)OCC#CI)cc1 (stereo not shown) tested on Eschericia coli?
400 to 1000 µg/mL

I'm curious: which MIC was measured for COc1ccc(OC(C)OCC#CI)cc1 (stereo not shown) tested on Eschericia coli?
> 1000 µg/mL

Okay, next one:
I'm curious: which MIC was measured for "COc1ccc(OCOCC#CI)cc1" tested on Eschericia coli?
> 1000 µg/mL

====

Test system: Gliocladium virens
PROTOCOL: MIC against fungi, Gliocladium virens (PDA medium)
Assay type: cell-based
ASSAY SETUP: Trichoderma virens, 336 h; 28° C., 2 weeks; read-out: Antimicrobial activity (MIC), Fungi G: Gliocladium virens
MEASURED METRIC: MIC

# count of solved cases: 3
Please report the recorded MIC for "CCOc1ccccc1OCOCC#CI" .
4 to 10 µg/mL

Please report the recorded MIC for "COc1ccc(OCOCC#CI)cc1" .
2 to 4 µg/mL

Please report the recorded MIC for COc1ccc(OC(C)OCC#CI)cc1 (stereo not shown) .
4 to 10 µg/mL

Okay, next one:
Please report the recorded MIC for "CCOc1ccc(OCOCC#CI)cc1" .
> 20 µg/mL

====

List of MIC values.
System: Gliocladium virens

Please report the recorded MIC for COc1ccccc1OC(C)OCC#CI (stereo not drawn) .
4 to 10 µg/mL

Please report the recorded MIC for "COc1ccccc1OCOCC#CI" .
> 20 µg/mL

Please report the recorded MIC for CCOc1ccc(OC(C)OCC#CI)cc1 (stereo not drawn) .
4 to 10 µg/mL

Please report the recorded MIC for CCOc1ccccc1OC(C)OCC#CI (stereo not drawn) .
4 to 10 µg/mL

Please report the recorded MIC for Clc1ccc(OCOCC#CI)cc1 [IF-1000, reference compound] .
1 to 2 µg/mL

Please report the recorded MIC for "N#Cc1ccc(OCOCC#CI)cc1" .
0.4 to 1 µg/mL
